For each entry below, report its IC50 value.
System: HCMV
Experiment: HCMV plaque reduction assay in HFF cells
Format: cell-based, human cytomegalovirus (HCMV)
Details: Human betaherpesvirus 5, HFF host cells
Procedure: Cells and viruses. The routine growth and passage of KB cells was performed in monolayer cultures using minimal essential medium (MEM) with either Hanks salts [MEM(H)] or Earle salts [MEM(E)] supplemented with 10% calf serum. […] Virological procedures. […] Virus titers were determined using monolayer cultures of HFF cells for HCMV and monolayer cultures of BSC-1 cells for HSV-1 as described earlier. […] Data Analysis. […] Fifty-percent inhibitory (IC50) concentrations were calculated from the regression lines. […]
Answers are plain numbers, in µM.

Please look at the items below and tell me IC50 for each one, in order.
1. COc1nc(N)nc2c1ncn2/C=C1/CC1(CO)CO [Compound 1g]
2. Nc1nc(O)c2ncn(COC(CO)CO)c2n1 [Ganciclovir, reference compound]
3. Nc1ccn(/C=C2/CC2(CO)CO)c(=O)n1 [Compound 1e]

Return:
3.5
4.1
32

Reference source for all entries: patent US8232275B2
